B1: Poly(rC)-binding protein 1, residues 278 to 350; numbered along this chain, Q15365 (parent)
chain: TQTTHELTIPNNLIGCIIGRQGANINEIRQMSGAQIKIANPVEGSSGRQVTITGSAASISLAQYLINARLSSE

- Variants of: B1
- method: abundance fitness (aPCA) (normalised: wild type 0, dead -1); higher = more abundant; growth selection in yeast, the domain comes from the species named
- experimental.conditions: Homo sapiens
The following variants are listed with their measured abundance fitness values.
property.name: abundance fitness

In [3]: df
Out[3]:
     mut      property_name  reading
 0   H5Q  abundance fitness    0.253
 1  S45F  abundance fitness   -0.009
 2  T51S  abundance fitness    -0.02
 3  Q21L  abundance fitness   -0.437
 4  G19I  abundance fitness   -0.583
 5  G44Q  abundance fitness   -0.308
 6  I38A  abundance fitness   -0.672
 7  G33Q  abundance fitness   -0.204
 8  I25F  abundance fitness   -0.539
 9  Q30T  abundance fitness    0.064
10  A23G  abundance fitness   -0.069
11   T4E  abundance fitness   -0.113
12  L13C  abundance fitness    -0.21
13  A57K  abundance fitness    0.116
14  S55G  abundance fitness    -0.21
15  G54W  abundance fitness   -0.912
16  M31N  abundance fitness    0.203
17  I17E  abundance fitness   -0.782
18  I66P  abundance fitness   -0.459
19  I25H  abundance fitness    0.296
20  T51N  abundance fitness   -0.427
21   T1Y  abundance fitness   -0.072
